# Tested on: RAW264.7 cells
# ASSAY EXPLANATION: Cell viability assay (MTT)
# Type: cell-based, mouse
# APPLIED CONDITIONS: MTT, 12 h
VALUE KIND: Concentration exhibiting no cytotoxicity against RAW264.7 cells

Example molecules with recorded Concentration exhibiting no cytotoxicity against RAW264.7 cells:
{"MOLECULE": "COC(=O)c1cc(O)c(O)c(O)c1 [Methyl gallate]", "TESTED ON": "RAW264.7 cells", "RESULT": "≤ 10 µM"}
{"MOLECULE": "O=C(O)c1cc(O)c(O)c(O)c1 [Gallic acid]", "TESTED ON": "RAW264.7 cells", "RESULT": "≤ 250 µM"}
{"MOLECULE": "C[C@@]12C[C@@]3(O)O[C@@H](O1)[C@]1(COC(=O)c4ccccc4)[C@H]3C[C@@]12O[C@@H]1O[C@H](COC(=O)c2cc(O)c(O)c(O)c2)[C@@H](O)[C@H](O)[C@H]1O [Galloylpaeoniflorin]", "TESTED ON": "RAW264.7 cells", "RESULT": "≤ 100 µM"}

Could you now look at the following molecule, please?
Incoming: Recorded Concentration exhibiting no cytotoxicity against RAW264.7 cells for O=C(OC[C@H]1O[C@@H](OC(=O)c2cc(O)c(O)c(O)c2)[C@H](OC(=O)c2cc(O)c(O)c(O)c2)[C@@H](OC(=O)c2cc(O)c(O)c(O)c2)[C@@H]1O)c1cc(O)c(O)c(O)c1 [TGG, 1,2,3,6-Tetra-O-galloyl-β-D-glucose] , please?
Outgoing: ≤ 20 µM

// data source = paper PMC10880116
